Experiment: comparative tests: nitrone pretreatment combined with adriamycin (Example 13)
Assay type: in vivo, mouse
Details: mouse, in vivo, ip; 300 mg/kg with adriamycin; read-out: combined toxicity (lethality)
measuredMetric: mortality

Which measured mortality value corresponds to CC(C)(C)[N+]([O-])=Cc1ccccc1 ?
10 to 20%

---

Test: adriamycin acute lethality and its prevention by pretreatment, C57BL/6J mice (Example 13)
Format: in vivo
Settings: mouse, in vivo, ip
measuredMetric: LD50 (mg/kg)
Numbers only here, please. The scale is mg/kg.

Given COc1cccc2c1C(=O)c1c(O)c3c(c(O)c1C2=O)C[C@@](O)(C(=O)CO)C[C@@H]3O[C@H]1C[C@H](N)[C@H](O)[C@H](C)O1 [adriamycin] , state its recorded LD50.
25
